List of inhibition at 0.1 µM values.
Molecular target: human oxytocin receptor (Homo sapiens)
Construct: host or cells: CHO cells (pcDNA3.1 vector)
Sequence (P30559 whole entry): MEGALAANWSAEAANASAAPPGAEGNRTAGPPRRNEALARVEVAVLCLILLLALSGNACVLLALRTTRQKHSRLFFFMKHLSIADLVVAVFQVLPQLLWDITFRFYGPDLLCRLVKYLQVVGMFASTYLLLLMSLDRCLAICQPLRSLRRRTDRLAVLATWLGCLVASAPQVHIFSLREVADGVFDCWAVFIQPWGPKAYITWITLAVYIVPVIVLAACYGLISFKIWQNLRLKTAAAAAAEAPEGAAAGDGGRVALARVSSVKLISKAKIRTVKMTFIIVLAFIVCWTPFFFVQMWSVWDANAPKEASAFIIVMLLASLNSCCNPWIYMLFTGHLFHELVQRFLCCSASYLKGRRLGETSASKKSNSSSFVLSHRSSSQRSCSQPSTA
Assay: Oxytocin binding in Chinese Hamster Ovary cell membranes expressing human oxytocin receptors
Settings: 100 nM, CHO cell membranes, [3H]oxytocin, values without parentheses, read-out: OT % inhibition @ 100% nM
endpoint: inhibition at 0.1 µM (%)

>>> measurement("COc1cc(C(=O)N2Cc3ccc(C(=O)n4ccnc4)n3Cc3ccccc32)ccc1-c1cccc2ccccc12")
32
>>> measurement("Cc1ccccc1-c1ccc(C(=O)N2Cc3ccc(C(=O)NCCCN(C)C)n3Cc3ccccc32)cc1")
65
>>> measurement("COc1cc2c(cc1OC)N(C(=O)c1ccc(-c3ccccc3C(F)(F)F)c(C)c1)Cc1cccn1C2")
21
>>> measurement("COc1ccccc1-c1ccc(C(=O)N2Cc3ccc(C(=O)NCCCn4ccnc4)n3Cc3ccccc32)cc1")
43
>>> measurement("Cc1ccccc1-c1ccc(C(=O)N2Cc3ccc(C(=O)NCCN4CCCCC4)n3Cc3ccccc32)cc1C")
75
>>> measurement("CN1CCCC1CCNC(=O)c1ccc2n1Cc1ccccc1N(C(=O)c1ccc(-c3cccc4ccccc34)cc1Cl)C2 (stereo not drawn)")
21
>>> measurement("Cc1cc(C(=O)N2Cc3ccc(C(=O)N4CCC(N5CCCC5)CC4)n3Cc3ccccc32)ccc1-c1ccccc1C(F)(F)F")
78
>>> measurement("COc1cc(C(=O)N2Cc3ccc(C(=O)N4CCN(CCN(C)C)CC4)n3Cc3ccccc32)ccc1-c1ccccc1C")
86
>>> measurement("COc1cccc(-c2ccc(C(=O)N3Cc4ccc(C(=O)N(C)CCCN(C)C)n4Cc4ccccc43)cc2C)c1")
95
